ΔGintr CAI reference
- target-or-system: CAI (Homo sapiens, UniProt P00915)
- Sequence (P00915 whole entry): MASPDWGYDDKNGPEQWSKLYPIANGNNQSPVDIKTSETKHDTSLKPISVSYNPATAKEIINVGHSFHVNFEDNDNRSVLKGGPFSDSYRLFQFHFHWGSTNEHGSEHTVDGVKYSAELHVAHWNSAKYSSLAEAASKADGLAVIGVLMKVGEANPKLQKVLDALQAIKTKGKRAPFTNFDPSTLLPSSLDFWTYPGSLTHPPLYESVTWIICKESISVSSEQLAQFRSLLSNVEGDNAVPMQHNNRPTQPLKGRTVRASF
- experimental-details: fluorescent thermal shift assay (FTSA), CAI
- Assay type: binding
- condition-set: converted from Kd_intr, 37 °C, independent of pH
# number only, unit kcal/mol dropped from output

For orientation, consider the following solved cases.
| molecule | target-or-system | ΔGintr CAI, kcal/mol |
| --- | --- | --- |
| COC(=O)c1cc(S(N)(=O)=O)c(SCc2ccccc2)cc1Cl [Compound 3c] | CAI (Homo sapiens, UniProt P00915) | -10.9 |
| COC(=O)c1cc(S(N)(=O)=O)c(Cl)cc1Sc1ccccc1 [Compound 5a] | CAI (Homo sapiens, UniProt P00915) | -11.2 |
| COC(=O)c1cc(S(N)(=O)=O)c(Cl)cc1S(=O)(=O)Cc1ccccc1 [Compound 9c] | CAI (Homo sapiens, UniProt P00915) | -10.7 |

Would you mind telling me what ΔGintr CAI value was observed for COC(=O)c1cc(S(N)(=O)=O)c(Cl)cc1SCc1ccccc1 [Compound 5c] ?
-11.5

Check COC(=O)c1cc(S(N)(=O)=O)c(Cl)cc1S(=O)(=O)c1ccccc1 [Compound 9a] too.
-11.5

# repeat for COC(=O)c1cc(S(N)(=O)=O)c(Br)cc1Sc1ccccc1 [Compound 6a]
-11.4

Try this molecule next: COC(=O)c1cc(S(N)(=O)=O)c(Cl)cc1Cl [Compound 1, Methyl 2,4-dichloro-5-sulfamoyl-benzoate]
-9.63

What do you get for COC(=O)c1cc(S(N)(=O)=O)c(Cl)cc1S(=O)(=O)CCc1ccccc1 [Compound 9d] ?
-11.3

Next molecule: COC(=O)c1cc(S(N)(=O)=O)c(Cl)cc1SC1CCCCC1 [Compound 5b]
-12.6

====

- target-or-system: UniProt P43166
- Sequence (P43166 whole entry): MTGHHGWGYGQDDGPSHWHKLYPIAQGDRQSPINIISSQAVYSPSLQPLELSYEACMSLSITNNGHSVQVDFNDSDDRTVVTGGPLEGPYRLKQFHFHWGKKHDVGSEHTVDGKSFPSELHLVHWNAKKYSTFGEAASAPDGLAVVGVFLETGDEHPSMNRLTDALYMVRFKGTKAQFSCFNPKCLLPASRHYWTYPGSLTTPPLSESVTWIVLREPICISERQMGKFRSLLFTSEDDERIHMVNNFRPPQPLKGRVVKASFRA
- experimental-details: fluorescent thermal shift assay (FTSA), CAVII
- Type: binding
- condition-set: converted from Kd_obs, 37 °C, pH 7.0, FTSA
# label = met if ΔGobs CAVII < -10 kcal/mol else not met

Worked cases, answers included:
| structure-as-smiles | target-or-system | class-assignment |
| --- | --- | --- |
| COC(=O)c1cc(S(N)(=O)=O)c(Cl)cc1SC1CCCCC1 | UniProt P43166 | met |
| COC(=O)c1cc(S(N)(=O)=O)c(SC2CCCCC2)cc1Cl | UniProt P43166 | not met |
| COC(=O)c1cc(S(N)(=O)=O)c(SC2CCCCCCCCCCC2)cc1Cl | UniProt P43166 | not met |
| COC(=O)c1cc(S(N)(=O)=O)c(Cl)cc1S(=O)(=O)c1ccccc1 | UniProt P43166 | met |

Pending compound:
Bench note: check whether `COC(=O)c1cc(S(N)(=O)=O)c(SC2CCCCC2)cc1Br` shows ΔGobs CAVII below -10 kcal/mol
not met

====

- experimental-details: determination of pKa of the sulfonamide group by UV-VIS spectra at various pH
- Assay type: physicochemical
- condition-set: at pH 7.0, calculated from pKa
Reported f RSO2NH-, fraction of deprotonated sulfonamide values for a set of molecules
State the answer as a number, implicitly in %.

| molecule | numeric-readout |
| --- | --- |
| COC(=O)c1cc(S(N)(=O)=O)c(Cl)cc1Cl [Compound 1, Methyl 2,4-dichloro-5-sulfamoyl-benzoate] | 1.2 |
| COC(=O)c1cc(S(N)(=O)=O)c(SC2CCCCCCCCCCC2)cc1Cl [Compound 3e] | 0.3 |
| COC(=O)c1cc(S(N)(=O)=O)c(Cl)cc1S(=O)(=O)c1cccc2ccccc12 [Compound 9f] | 3.8 |

Look up f RSO2NH-, fraction of deprotonated sulfonamide for this molecule: COC(=O)c1cc(S(N)(=O)=O)c(Cl)cc1Sc1ccccc1 [Compound 5a]
0.4

Moving on to the next molecule: COC(=O)c1cc(S(N)(=O)=O)c(Cl)cc1Sc1cccc2ccccc12 [Compound 5f]
0.4

How about COC(=O)c1cc(S(N)(=O)=O)c(Br)cc1S(=O)(=O)c1ccccc1 [Compound 10a] ?
3.8

Again, but for COC(=O)c1cc(S(N)(=O)=O)c(S(=O)(=O)C2CCCCC2)cc1Br [Compound 8b]
0.1

Same lookup for COC(=O)c1cc(S(N)(=O)=O)c(Cl)cc1S(=O)(=O)C1CCCCC1 [Compound 9b] , please.
5.9
